# testedSystem: T1, human FcRn/b2M (human, UniProt P61769 21-119, biotinylated)
# T1 construct: bought recombinant biotinylated protein (ACRO FCM-H82W4 or Immunitrack ITF01); also called hFcRn; hFcRn/hb2M
# procedureSummary: SPR pH 6.0;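 also: surface plasmon resonance kinetics at 25 °C, diluted periplasmic extracts injected over immobilized ligand surfaces, 120 s association then 600–3600 s dissociation, running buffer containing 150 mM NaCl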
testReadout: koff (s⁻¹)

T0263018B11 F29H (VHH, name in Kabat numbering, FLAG3-His6 tagged) VHH: EVQLVESGGGVVQPGGSLRLSCAASGFTHSSYAMYWVRQAPGKGLEWVSAISSGGGSTDYADSVKGRFTISRDNSKNTLYLQMNSLRPEDTALYYCAADTLYTSLTWYSYWGQGTLVTVSS
0.0039
T0263018B11 S52aW (VHH, name in Kabat numbering, FLAG3-His6 tagged) VHH: EVQLVESGGGVVQPGGSLRLSCAASGFTFSSYAMYWVRQAPGKGLEWVSAISWGGGSTDYADSVKGRFTISRDNSKNTLYLQMNSLRPEDTALYYCAADTLYTSLTWYSYWGQGTLVTVSS
0.0015
T0263018B11 W100cF (VHH, name in Kabat numbering, FLAG3-His6 tagged) VHH: EVQLVESGGGVVQPGGSLRLSCAASGFTFSSYAMYWVRQAPGKGLEWVSAISSGGGSTDYADSVKGRFTISRDNSKNTLYLQMNSLRPEDTALYYCAADTLYTSLTFYSYWGQGTLVTVSS
0.0036
T0263018B11 S101M (VHH, name in Kabat numbering, FLAG3-His6 tagged) VHH: EVQLVESGGGVVQPGGSLRLSCAASGFTFSSYAMYWVRQAPGKGLEWVSAISSGGGSTDYADSVKGRFTISRDNSKNTLYLQMNSLRPEDTALYYCAADTLYTSLTWYMYWGQGTLVTVSS
0.0011
T0263018B11 T57S (VHH, name in Kabat numbering, FLAG3-His6 tagged) VHH: EVQLVESGGGVVQPGGSLRLSCAASGFTFSSYAMYWVRQAPGKGLEWVSAISSGGGSSDYADSVKGRFTISRDNSKNTLYLQMNSLRPEDTALYYCAADTLYTSLTWYSYWGQGTLVTVSS
0.0011
T0263018B11 A93T (VHH, name in Kabat numbering, FLAG3-His6 tagged) VHH: EVQLVESGGGVVQPGGSLRLSCAASGFTFSSYAMYWVRQAPGKGLEWVSAISSGGGSTDYADSVKGRFTISRDNSKNTLYLQMNSLRPEDTALYYCTADTLYTSLTWYSYWGQGTLVTVSS
0.0025

(1) T0263018B11 S30T (VHH, name in Kabat numbering, FLAG3-His6 tagged) VHH: EVQLVESGGGVVQPGGSLRLSCAASGFTFTSYAMYWVRQAPGKGLEWVSAISSGGGSTDYADSVKGRFTISRDNSKNTLYLQMNSLRPEDTALYYCAADTLYTSLTWYSYWGQGTLVTVSS
(2) T0263018B11 T100bL (VHH, name in Kabat numbering, FLAG3-His6 tagged) VHH: EVQLVESGGGVVQPGGSLRLSCAASGFTFSSYAMYWVRQAPGKGLEWVSAISSGGGSTDYADSVKGRFTISRDNSKNTLYLQMNSLRPEDTALYYCAADTLYTSLLWYSYWGQGTLVTVSS
Problem: Task for the reader: decide whether 1 or 2 has the larger koff. I would appreciate it if you answered with the label of your choice.
Result: 2
